test: inhibitors of MT1-MMP promoter transcription, cell-based, luciferase reporter, luminescence (AID 618); settings: MT1-MMP promoter luciferase reporter cells;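 note: actives suppress MT1-MMP promoter-driven transcription so potencies describe inhibitors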
Among all 87,000 compounds or so, about 540 (0.62%) were called active. The rule behind the calls is not given here. Many of the other results were omitted from the sample, so actives are more common in it than they were. Results with a measured potency or affinity are listed apart.
Please reply with one of these outcomes: label 1 (active), label 0 (inactive)

Examples with answers:
{"compound": "O=C(Nc1ccc(N2CCN(C(=O)c3ccco3)CC2)cc1)c1cccc(F)c1", "class-assignment": "label 0"}
{"compound": "O=C(Nc1ccc(N2CCCC2)cc1)c1cccc(F)c1", "class-assignment": "label 1"}
{"compound": "c1ccc(-c2noc(-c3cccc4ccccc34)n2)nc1", "class-assignment": "label 1"}
{"compound": "COc1cccc(-c2nc(-c3ccccn3)no2)c1OC", "class-assignment": "label 0"}
{"compound": "COc1ccc(C)cc1S(=O)(=O)N1CCC(C(=O)NCCC2=CCCCC2)CC1", "class-assignment": "label 0"}

For Cc1nn(C)c(C)c1S(=O)(=O)N1CCC(C(=O)NCC2COc3ccccc3O2)CC1 (stereo unspecified) , which call appears in the assay record?
label 0

====

test: inhibitors of MT1-MMP promoter transcription, cell-based, luciferase reporter, luminescence (AID 618); conditions: MT1-MMP promoter luciferase reporter cells;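 note: actives suppress MT1-MMP promoter-driven transcription so potencies describe inhibitors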
About 540 (0.62%) of roughly 87,000 compounds were called active. What follows is part of a selection rich in actives, with near analogues and random picks from the rest. Potency and affinity values are given separately.
measurement-kind: outcome

{"compound": "O=C(c1ccco1)N1CCN=C1SCc1ccc(F)cc1", "outcome": "inactive"}
{"compound": "COc1ccccc1/C=N/n1c(C)nnc1-n1nc(C)cc1C", "outcome": "inactive"}
{"compound": "CSc1cc(-c2ccccc2)n(Cc2c(Cl)cccc2Cl)c(=O)c1C#N", "outcome": "active"}
{"compound": "CCc1ccc2oc(-c3cccc(NC(=O)c4cccnc4)c3)nc2c1", "outcome": "inactive"}
{"compound": "CC1CCCc2sc3nc(N4CCN(CCO)CC4)n4ncnc4c3c21 (stereo not drawn)", "outcome": "inactive"}

What value of outcome has been reported for the following compound? `Cc1cc(C)n(Cc2ccccc2F)c(=O)c1C#N`
inactive

Try `CCCOC(=O)c1ccc(Oc2c(-c3ccc(OC)cc3O)n[nH]c2C)cc1` next.
inactive

Try COc1ccc(OC)c(NC(=O)C2CCCN2C(=O)OCc2ccccc2)c1 (stereo not drawn) next.
inactive

====

assay: inhibitors of MT1-MMP promoter transcription, cell-based, luciferase reporter, luminescence (AID 618); conditions: MT1-MMP promoter luciferase reporter cells;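 note: actives suppress MT1-MMP promoter-driven transcription so potencies describe inhibitors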
The campaign covered roughly 87,000 compounds. About 540 (0.62%) were called active. No rule for the calls is given here. The sample as a whole holds a higher share of actives than the screen did. Entries with a potency or affinity are not part of this list.
Please reply with one of these outcomes: active, inactive

{"molecule": "O=C(Nc1ccc2c(c1)OCCO2)C1CCCN(c2ncccn2)C1 (stereo not given)", "class-assignment": "active"}
{"molecule": "Nc1c(C(=O)Nc2ccccc2)sc2nc3c(c(-c4ccco4)c12)CCC3", "class-assignment": "inactive"}
{"molecule": "Cc1nc(CSc2nc3[nH]ncc3c(=O)n2-c2ccccc2)cs1", "class-assignment": "inactive"}
{"molecule": "CC(=O)Nc1ccc(NC(=O)C2CCCN(c3ncccn3)C2)cc1 (stereo not given)", "class-assignment": "inactive"}
{"molecule": "CCC(CO)Nc1ncnc2c1cnn2-c1ccc(OC)cc1 (stereo not given)", "class-assignment": "inactive"}

For `CCn1c(CCNC(=O)c2cccs2)nnc1SCC(=O)NC1CCCCC1` , which call appears in the assay record?
inactive
